FYI, the data here is from ChEMBL document CHEMBL1697781.

test system: Hepatotoxicity; test: FDA HLAED, serum glutamic pyruvic transaminase (SGPT) increase; settings: human
observed-property: SGPT Increase - Number of Reports

Known results for compounds:
INSERT INTO assay_data (compound, result) VALUES
  ('CC(C)/N=c1\cc2n(-c3ccc(Cl)cc3)c3ccccc3nc-2cc1Nc1ccc(Cl)cc1', '>= 4'),
  ('Cc1c(OCC(F)(F)F)ccnc1C[S+]([O-])c1nc2ccccc2[nH]1 (stereo not given)', '>= 4'),
  ('CCOC(=O)C1=C(COCCN)NC(C)=C(C(=O)OC)C1c1ccccc1Cl (stereo not given)', '>= 4'),
  ('CN1CCC[C@H]1c1cccnc1', '< 4');

What measured SGPT Increase - Number of Reports is associated with C[C@]12CC[C@H]3[C@@H](CCC4=CC(=O)CC[C@@]43C)[C@@H]1CC[C@@H]2OC(=O)CCC1CCCC1 [TESTOSTERONE CYPIONATE] on Hepatotoxicity?
< 4

====

Provide the reported SGPT Increase - Index Value of each item.
system: Hepatotoxicity; experiment: FDA HLAED, serum glutamic pyruvic transaminase (SGPT) increase; conditions: human
Numbers only.

Known results for compounds:
INSERT INTO measurements (compound, measured_number) VALUES
  ('C[C@]12CC[C@@H]3c4ccc(OC(=O)c5ccccc5)cc4CC[C@H]3[C@@H]1CC[C@@H]2O [ESTRADIOL BENZOATE]', 2.1),
  ('Nc1cc(-c2ccncc2)c[nH]c1=O [INAMRINONE]', 4.4),
  ('Cn1c(=O)c2[nH]cnc2n(C)c1=O.O [THEOPHYLLINE]', 0);

Item N[C@@H](C(=O)N[C@@H]1C(=O)N2C(C(=O)O)=C(Cl)CC[C@H]12)c1ccccc1 [LORACARBEF ANHYDROUS] has what recorded SGPT Increase - Index Value?
0.2
